# Target Under Test: δ opioid receptor (Homo sapiens)
# Construct: expressed in transfected cells; host or cells: CHO cells (membranes)
# Sequence (P41143 whole entry): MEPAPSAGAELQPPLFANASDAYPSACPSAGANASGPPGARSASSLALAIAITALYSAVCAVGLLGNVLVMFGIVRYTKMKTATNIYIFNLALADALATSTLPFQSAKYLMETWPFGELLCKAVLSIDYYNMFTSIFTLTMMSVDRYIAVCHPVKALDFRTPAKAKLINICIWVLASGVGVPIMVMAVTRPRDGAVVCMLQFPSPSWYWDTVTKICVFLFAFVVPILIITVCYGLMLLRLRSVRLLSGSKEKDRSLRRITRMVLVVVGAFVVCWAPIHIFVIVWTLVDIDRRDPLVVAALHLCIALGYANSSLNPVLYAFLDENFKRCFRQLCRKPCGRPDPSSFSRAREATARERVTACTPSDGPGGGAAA
# Method Description: Competition binding assay on membranes of CHO cells expressing δ opioid receptor, [3H]-labeled ligand
# Experimental Setup: 0.5 h; Table 2-1; 1 μM concentration of compound; read-out: δOR Binding rate (%)
Where a name gives a salt, the structure may show the parent alone.
The entries below come with measured inhibition at 1 µM values attached.

Known results for compounds:
Compound: COc1cccc(C2(O)CCN(S(=O)(=O)C(C)C)CC2CN(C)C)c1.Cl (stereo not shown) [FWBH20, hydrochloride]
inhibition at 1 µM: 20.8%
//
Compound: COc1cccc(C2(O)CCN(S(=O)(=O)CCc3ccccc3)CC2CN(C)C)c1.Cl (stereo not shown) [FWBH9, hydrochloride]
inhibition at 1 µM: 0%
//
Compound: COc1cccc(C2(O)CCN(S(=O)(=O)C[C@@]34CC[C@@H](CC3=O)C4(C)C)CC2CN(C)C)c1 (stereo partly shown) [FWBH24, hydrochloride]
inhibition at 1 µM: 11.1%

Turning now to a further record.
Noted inhibition at 1 µM for CCCCS(=O)(=O)N1CCC(O)(c2cccc(OC)c2)C(CN(C)C)C1.Cl (stereo not shown) [FWBH15, hydrochloride] , tested on δ opioid receptor (Homo sapiens): 27.2%
